Test method notes: The drug is tested on Bacteroides fragilis strain: ATCC43859 for biotransformation. The drug concentrations were measured before and after a 12-h incubation by liquid-chromatography-coupled mass spectrometry (LC–MS)
Measurement parameters: 2 µM
Property measured: Bacterial Biotransformation

1. O=C1CN2Cc3c(ccc(Cl)c3Cl)N=C2N1 [ANAGRELIDE]
Compound NOT metabolized
2. CC[C@H](C)C(=O)O[C@H]1CCC=C2C=C[C@H](C)[C@H](CC[C@@H]3C[C@@H](O)CC(=O)O3)[C@H]21 [MEVASTATIN]
Compound NOT metabolized
3. CCN(C(C)=O)c1cccc(-c2ccnc3c(C#N)cnn23)c1 [ZALEPLON]
Compound metabolized
4. CC(C)(C)NCC(O)COc1cccc2c1CC(O)C(O)C2 (stereo not drawn) [NADOLOL]
Compound NOT metabolized
5. Nc1nc2ccc(OC(F)(F)F)cc2s1 [RILUZOLE]
Compound metabolized

Name the recorded Bacterial Biotransformation for CN1CCC(OC(c2ccccc2)c2ccccc2)CC1 .
Compound NOT metabolized

Entry to check: CCCCc1nc(Cl)c(CO)n1Cc1ccc(-c2ccccc2-c2nn[nH]n2)cc1 [LOSARTAN]
Compound metabolized

----------
Measurement parameters: parabacteroides distasonis, 12 h, 2 µM
Description: The drug is tested on Parabacteroides distasonis strain: ATCC8503 for biotransformation. The drug concentrations were measured before and after a 12-h incubation by liquid-chromatography-coupled mass spectrometry (LC–MS)
Property measured: Bacterial Biotransformation

1) C#C[C@]1(O)CC[C@H]2[C@@H]3CCC4=Cc5oncc5C[C@]4(C)[C@H]3CC[C@@]21C
Compound metabolized
2) CC(Oc1c(Cl)cccc1Cl)C1=NCCN1 (configuration not stated)
Compound NOT metabolized
3) Cc1nc2n(c(=O)c1CCN1CCC(c3noc4cc(F)ccc34)CC1)CCCC2O (configuration not stated)
Compound metabolized
4) CC(C)(C)N.CCC[C@H](N[C@@H](C)C(=O)N1[C@H](C(=O)O)C[C@@H]2CCCC[C@@H]21)C(=O)OCC
Compound NOT metabolized
5) OCCN1CCN(CCCN2c3ccccc3Sc3ccc(C(F)(F)F)cc32)CC1
Compound metabolized
6) C[C@H]1O[C@@H](O[C@H]2[C@@H](O)C[C@H](O[C@H]3[C@@H](O)C[C@H](O[C@H]4CC[C@@]5(C)[C@H](CC[C@@H]6[C@@H]5C[C@@H](O)[C@]5(C)[C@@H](C7=CC(=O)OC7)CC[C@]65O)C4)O[C@@H]3C)O[C@@H]2C)C[C@H](O)[C@@H]1O
Compound NOT metabolized
7) COc1ccccc1N1CCN(CC(O)COc2cccc3ccccc23)CC1 (configuration not stated)
Compound NOT metabolized
8) CC(C)C[C@H]1C(=O)N2CCC[C@H]2[C@]2(O)O[C@](NC(=O)[C@@H]3C=C4c5cccc6[nH]c(Br)c(c56)C[C@H]4N(C)C3)(C(C)C)C(=O)N12.CS(=O)(=O)O [BROMOCRIPTINE MESYLATE]
Compound metabolized

I have this molecule here, CC(CN(C)C)CN1c2ccccc2CCc2ccccc21.O=C(O)/C=C\C(=O)O (configuration not stated) [TRIMIPRAMINE MALEATE] , and I need its recorded Bacterial Biotransformation.
Compound NOT metabolized

What about this molecule? O=C(O)COCCN1CCN(C(c2ccccc2)c2ccc(Cl)cc2)CC1 (configuration not stated)
Compound metabolized

What would you report for CC[C@H](C)C(=O)O[C@H]1CCC=C2C=C[C@H](C)[C@H](CC[C@@H]3C[C@@H](O)CC(=O)O3)[C@H]21 ?
Compound metabolized

And for COc1ccccc1OCC(O)COC(N)=O (configuration not stated) ?
Compound NOT metabolized

Thanks! And CN(C)CCOC(c1ccc(Cl)cc1)c1ccccn1.O=C(O)/C=C\C(=O)O (configuration not stated) [CARBINOXAMINE MALEATE] ?
Compound NOT metabolized

And then CC1=C(CC(=O)O)c2cc(F)ccc2/C1=C\c1ccc([S+](C)[O-])cc1 (configuration not stated) , what is it?
Compound NOT metabolized

Try the molecule CCOC(=O)C1=C(C)NC(C)=C(C(=O)OC)C1c1cccc([N+](=O)[O-])c1 (configuration not stated)
Compound metabolized

What do you get for Nc1c2c(nc3ccccc13)CCCC2 ?
Compound NOT metabolized

Then this molecule: CC(NC(C)(C)C)C(=O)c1cccc(Cl)c1 (configuration not stated)
Compound NOT metabolized

----------
Test method notes: The drug is tested on Ruminococcus lactaris strain: ATCC29176 for biotransformation. The drug concentrations were measured before and after a 12-h incubation by liquid-chromatography-coupled mass spectrometry (LC–MS)
Measurement parameters: 2 µM
Property measured: Bacterial Biotransformation

1) O=C(CCCN1CCC(O)(c2ccc(Cl)cc2)CC1)c1ccc(F)cc1
Compound NOT metabolized
2) CCN(C)C(=O)Oc1cccc([C@H](C)N(C)C)c1.O=C(O)C(O)C(O)C(=O)O [RIVASTIGMINE TARTRATE]
Compound NOT metabolized
3) C[C@]12CCC(=O)C=C1[C@@H]1C[C@@H]1[C@H]1[C@@H]3[C@@H]4C[C@@H]4[C@@]4(CCC(=O)O4)[C@@]3(C)CC[C@@H]12
Compound NOT metabolized
4) CN(C)CCOC(C)(c1ccccc1)c1ccccn1.O=C(O)CCC(=O)O (stereo not drawn) [DOXYLAMINE SUCCINATE]
Compound NOT metabolized
5) COCCCC/C(=N\OCCN)c1ccc(C(F)(F)F)cc1.O=C(O)/C=C\C(=O)O [FLUVOXAMINE MALEATE]
Compound NOT metabolized

So what's the measured Bacterial Biotransformation for this one? O=c1n(CCCN2CCN(c3cccc(Cl)c3)CC2)nc2ccccn12
Compound NOT metabolized

Now this one: CCCCC(=O)N(Cc1ccc(-c2ccccc2-c2nnn[nH]2)cc1)[C@H](C(=O)O)C(C)C
Compound NOT metabolized

----------
Measurement parameters: limosilactobacillus reuteri cf48-3a, 12 h, 2 µM
Description: The drug is tested on Lactobacillus reuteri CF48-3A strain: BEI HM-102 for biotransformation. The drug concentrations were measured before and after a 12-h incubation by liquid-chromatography-coupled mass spectrometry (LC–MS)
Property measured: Bacterial Biotransformation

Past entries and their recorded results:
1. CCCCCNC(=N)N/N=C/c1c[nH]c2ccc(OC)cc12.O=C(O)/C=C\C(=O)O [TEGASEROD MALEATE]
Compound NOT metabolized
2. CN1CCOC(c2ccccc2)c2ccccc2C1 (stereo not drawn) [NEFOPAM]
Compound NOT metabolized
3. Nc1ccc(/N=N/c2ccccc2)c(N)n1 [PHENAZOPYRIDINE]
Compound NOT metabolized
4. CCN(CC)CCNC(=O)c1cc(Cl)c(N)cc1OC [METOCLOPRAMIDE]
Compound NOT metabolized
5. CC(C)(Oc1ccc(CCNC(=O)c2ccc(Cl)cc2)cc1)C(=O)O [BEZAFIBRATE]
Compound metabolized

Would you kindly share the measured Bacterial Biotransformation for CNS(=O)(=O)Cc1ccc2[nH]cc(CCN(C)C)c2c1.O=C(O)CCC(=O)O [SUMATRIPTAN SUCCINATE] ?
Compound NOT metabolized

Try COc1ccc2[nH]c([S+]([O-])Cc3ncc(C)c(OC)c3C)nc2n1 (stereo not drawn) [TENATOPRAZOLE] next.
Compound metabolized

Also CCCc1nn(C)c2c(=O)[nH]c(-c3cc(S(=O)(=O)N4CCN(C)CC4)ccc3OCC)nc12.O=C(O)CC(O)(CC(=O)O)C(=O)O [SILDENAFIL CITRATE] ?
Compound metabolized

----------
Test method notes: The drug is tested on Bacteroides cellulosilyticus strain: DSM14838 for biotransformation. The drug concentrations were measured before and after a 12-h incubation by liquid-chromatography-coupled mass spectrometry (LC–MS)
Measurement parameters: 2 µM
Non-standard residues stand in square brackets, D forms with d. Residues, ends and D or L forms follow the SMILES beside them. pGlu = O=C1CC[C@@H](C(=O)O)N1; Thz = O=C(O)[C@@H]1CSCN1
Property measured: Bacterial Biotransformation

# example entries with known answers
1. O=C1CC[C@@H](C(=O)N2CSC[C@H]2C(=O)O)N1 [PIDOTIMOD] ([pGlu]-[Thz]-OH)
Compound NOT metabolized
2. CC(CCc1ccccc1)NCC(O)c1ccc(O)c(C(N)=O)c1 (stereo unspecified) [LABETALOL]
Compound NOT metabolized
3. CC(=O)O[C@]1(C(C)=O)CC[C@H]2[C@@H]3C=C(Cl)C4=CC(=O)[C@@H]5C[C@@H]5[C@]4(C)[C@H]3CC[C@@]21C [CYPROTERONE ACETATE]
Compound metabolized
4. COc1cc2nc(N3CCN(C(=O)C4COc5ccccc5O4)CC3)nc(N)c2cc1OC.CS(=O)(=O)O (stereo unspecified) [DOXAZOSIN MESYLATE]
Compound NOT metabolized
5. COc1ccccc1OCC(O)COC(N)=O (stereo unspecified) [METHOCARBAMOL]
Compound NOT metabolized

Form field: reported Bacterial Biotransformation of C#C[C@]1(OC(C)=O)CC[C@H]2[C@@H]3CCC4=C/C(=N/O)CC[C@@H]4[C@H]3CC[C@@]21CC [NORGESTIMATE]
Compound NOT metabolized

Try the compound CCCN(CCC)CCc1cccc2c1CC(=O)N2 [ROPINIROLE]
Compound NOT metabolized

----------
Test method notes: The drug is tested on Bacteroides vulgatus strain: ATCC8482 for biotransformation. The drug concentrations were measured before and after a 12-h incubation by liquid-chromatography-coupled mass spectrometry (LC–MS)
Measurement parameters: phocaeicola vulgatus, 2 µM
Property measured: Bacterial Biotransformation

Example cases with answers are listed next.
1) CNC(=C[N+](=O)[O-])NCCSCc1csc(CN(C)C)n1
Compound metabolized
2) CCCN(CCC)CCc1cccc2c1CC(=O)N2
Compound NOT metabolized
3) CC(C(=O)O)c1ccc2c(c1)Cc1cccnc1O2 (stereo not given)
Compound metabolized
4) CN(C)CC(c1ccc(O)cc1)C1(O)CCCCC1.O=C(O)CCC(=O)O (stereo not given) [DESVENLAFAXINE SUCCINATE]
Compound NOT metabolized
5) N[C@@H](Cc1ccc(N(CCCl)CCCl)cc1)C(=O)O
Compound metabolized
6) CO[C@]12C[C@@H](COC(=O)c3cncc(Br)c3)CN(C)[C@@H]1Cc1cn(C)c3cccc2c13
Compound metabolized

Any idea what its Bacterial Biotransformation is? The compound is CCN(CC)CCNC(C(=O)OCCC(C)C)c1ccccc1.Cl.Cl (stereo not given)
Compound NOT metabolized

Next: CCN1CCCC1CNC(=O)c1cc(S(=O)(=O)CC)c(N)cc1OC (stereo not given) [AMISULPRIDE]
Compound NOT metabolized

Please answer likewise for Cc1ccccc1N1C(=O)c2cc(S(N)(=O)=O)c(Cl)cc2NC1C (stereo not given)
Compound NOT metabolized

Also, O=C(CCCN1CCC(O)(c2ccc(Cl)cc2)CC1)c1ccc(F)cc1 please.
Compound NOT metabolized
